assay: Metabolic stability in human assessed as parent compound remaining; type: ADME
The following compounds are listed with their measured Stability values.
Measured Quantity: Stability

Mol | Recorded Measurement
Cc1nc(N[C@@H]2C[C@H]3CC[C@@H]2C3)c2cc(-c3cccc(C(F)(F)F)c3)ccc2n1 | 75%
Clc1nc(N[C@@H]2C[C@H]3CC[C@@H]2C3)c2cc(-c3ccc(Cl)c(Cl)c3)ccc2n1 | 69%
FC(F)(F)c1cccc(-c2ccc3nc(Cl)nc(N[C@@H]4C[C@H]5CC[C@@H]4C5)c3c2)c1 | 58%
Cc1ncc(-c2ccc(C(F)(F)F)cc2)c(N[C@@H]2C[C@H]3CC[C@@H]2C3)n1 | 65%
Clc1cc(Cl)cc(-c2ccc3nc(Cl)nc(N[C@@H]4C[C@H]5CC[C@@H]4C5)c3c2)c1 | 85%
Cc1nc(N[C@@H]2C[C@H]3CC[C@@H]2C3)c2cc(-c3cc(Cl)cc(Cl)c3)ccc2n1 | 62%

The reported numbers originate from ChEMBL document CHEMBL5120808.
